Target: Inward rectifier potassium channel 2 (Mus musculus)
Experiment: blocks the mouse Kir2.1 inward-rectifier potassium channel (AID 1672);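 note: channel flux triggered by added potassium and thallium sulfate stimulus; B-score of peak minus minimum fluorescence over baseline after thallium stimulus; more negative B-score means stronger Kir2.1 block with less thallium influx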
Conditions: HEK293-Kir2.1, FluxOR thallium flux fluorescence; at 10 µM
The campaign covered roughly 310,000 compounds. About 2,600 (0.84%) were called active.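 Rule for the calls: active = fluorescence ratio B-score at or below minus 3 SD of library scores, with starting-brightness B-score within 2 SD (cut at about -4.2 in these data); inactive = the rest.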 Only a selection was taken, and actives are over-represented in it overall.
Possible outcomes: active, inactive

{"COMPOUND": "O=C(Nc1cccnc1)c1cc(Cl)ccc1Cl", "CAT": "inactive"}
{"COMPOUND": "CC(=O)N1C(C)c2ccccc2C(C)(C)CC12CCCCC2 (stereo unspecified)", "CAT": "active"}
{"COMPOUND": "O=C(/C=C/c1ccc(Cl)c([N+](=O)[O-])c1)c1cccnc1", "CAT": "inactive"}
{"COMPOUND": "O=C(CN1C(=O)c2ccccc2C1=O)NCc1ccc(C(=O)O)cc1", "CAT": "inactive"}
{"COMPOUND": "CCN(CC(=O)Nc1cc(Cl)ccc1C)C(=O)CN1C(=O)NC2(CCCC2)C1=O", "CAT": "inactive"}
{"COMPOUND": "O=C(/C=C/c1ccc(Cl)cc1Cl)c1cccnc1", "CAT": "active"}

* * *

Molecular target: Inward rectifier potassium channel 2 (Mus musculus)
Assay: blocks the mouse Kir2.1 inward-rectifier potassium channel (AID 1672);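 note: channel flux triggered by added potassium and thallium sulfate stimulus; B-score of peak minus minimum fluorescence over baseline after thallium stimulus; more negative B-score means stronger Kir2.1 block with less thallium influx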
Settings: HEK293-Kir2.1, FluxOR thallium flux fluorescence; at 10 µM; hits give low values
Hit rate of the full screen: of about 310,000 compounds, about 2,600 (0.84%) were called active. Shown is part of a subset that was picked to be rich in actives.

{"MOLECULE": "Cc1csc(NC(=O)c2ccc(C)s2)n1", "B-score": 0.01}
{"MOLECULE": "CCCNC(=O)CSc1nc(Cc2ccccc2)nc2ccccc12", "B-score": -5.07}
{"MOLECULE": "O=C(NNC(=O)c1ccc(-c2ccccc2)cc1)Nc1ccccc1", "B-score": -0.44}
{"MOLECULE": "Cc1ccc(C(=O)NNC(=O)C(C)Oc2ccc3ccccc3c2)o1 (stereo not drawn)", "B-score": 0.32}
{"MOLECULE": "CCc1nc(SCC(=O)NNC(=O)c2ccc(C)cc2)c2ccccc2n1", "B-score": -1.13}
{"MOLECULE": "COc1cccc(CNCCc2c[nH]c3ccccc23)c1OCc1ccccc1F", "B-score": -12}
{"MOLECULE": "COc1ccc(S(=O)(=O)NCCc2c[nH]c3ccccc23)cc1OC", "B-score": -1.99}
{"MOLECULE": "Cc1ccc(NC(=O)COc2coc(CN3CCc4ccccc4C3)cc2=O)cc1Cl", "B-score": -0.37}
{"MOLECULE": "CCCc1nc(SCC(=O)Nc2ccc(S(=O)(=O)N(C)C)cc2)c2ccccc2n1", "B-score": 0.71}
{"MOLECULE": "CCOc1ccccc1OCCCNCc1ccccc1", "B-score": -3.69}
{"MOLECULE": "Cc1cc(NC(=O)C(C)SCC(=O)Nc2ccccc2N2CCCCC2)no1 (stereo not drawn)", "B-score": -4.17}
{"MOLECULE": "COc1ccc(Nc2ncnc3sc(C)cc23)cc1", "B-score": -6.13}
{"MOLECULE": "COc1ccccc1N1CCN(c2nc(C)cc(=O)[nH]2)CC1", "B-score": 0.62}
{"MOLECULE": "CCN1C(=O)[C@@H]2[C@@H](c3ccc(-c4cccc(Cl)c4)cc3)N3CCC[C@@]3(C(=O)OC)[C@@H]2C1=O", "B-score": 0}
{"MOLECULE": "CCCCOc1ccc(C(=O)NCc2ccncc2)cc1", "B-score": 0.24}
{"MOLECULE": "COc1ccccc1OCCCCCCN1CCN(C)CC1", "B-score": 1}
{"MOLECULE": "CN(C)S(=O)(=O)c1cccc(C(=O)OCC(=O)N2CCCC2=O)c1", "B-score": 0.88}
{"MOLECULE": "COc1ccc(N(Cc2ccccc2)S(=O)(=O)c2cccc(C(=O)O)c2)cc1", "B-score": -0.29}
{"MOLECULE": "CCOc1ccc(S(=O)(=O)Nc2cccc(C(=O)NCC3(N4CCCCC4)CCCCC3)c2)cc1", "B-score": -0.12}
{"MOLECULE": "O=S(=O)(Nc1cccc(-c2ccc(N3CCOCC3)nn2)c1)c1ccc(Cl)c(Cl)c1", "B-score": 0.82}
{"MOLECULE": "COc1ccc(Nc2ncnc3sc(-c4ccccc4)cc23)c(OC)c1", "B-score": 0}
{"MOLECULE": "CN1CCN(CCCCOc2cccc3ccccc23)CC1", "B-score": -1.84}
{"MOLECULE": "COc1ccc(-c2csc3ncnc(N4CCN(S(=O)(=O)c5cccc(F)c5)CC4)c23)cc1", "B-score": 0.02}

* * *

Biological target: Inward rectifier potassium channel 2 (Mus musculus) (UniProt P35561)
Sequence (P35561 whole entry, looked up): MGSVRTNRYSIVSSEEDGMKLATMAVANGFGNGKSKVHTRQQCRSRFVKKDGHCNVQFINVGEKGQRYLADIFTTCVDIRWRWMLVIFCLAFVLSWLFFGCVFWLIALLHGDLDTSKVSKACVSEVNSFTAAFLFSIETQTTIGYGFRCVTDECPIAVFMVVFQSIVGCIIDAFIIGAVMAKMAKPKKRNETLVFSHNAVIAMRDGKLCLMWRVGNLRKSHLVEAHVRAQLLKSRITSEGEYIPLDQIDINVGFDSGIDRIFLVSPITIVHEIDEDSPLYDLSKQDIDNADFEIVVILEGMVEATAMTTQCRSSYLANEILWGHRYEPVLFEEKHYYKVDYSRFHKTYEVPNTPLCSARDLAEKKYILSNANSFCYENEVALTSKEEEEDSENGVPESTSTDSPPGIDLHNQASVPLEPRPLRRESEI
Assay: blocks the mouse Kir2.1 inward-rectifier potassium channel (AID 1672);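 note: channel flux triggered by added potassium and thallium sulfate stimulus; B-score of peak minus minimum fluorescence over baseline after thallium stimulus; more negative B-score means stronger Kir2.1 block with less thallium influx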
Details: HEK293-Kir2.1, FluxOR thallium flux fluorescence; at 10 µM; hits give low values
Among all 310,000 compounds or so, about 2,600 (0.84%) were called active. This is one part of a sample in which actives are shown more often than they occur.
PROPERTY: B-score

{"COMPOUND": "Cc1sc2ncnc(N3CCC(C(=O)NNC(=O)c4ccc(F)cc4)CC3)c2c1C", "REPORTED_VALUE": 0.05}
{"COMPOUND": "COc1ccc(C(=O)OCC(=O)c2ccc(Cl)s2)c(OC)c1OC", "REPORTED_VALUE": 1.46}
{"COMPOUND": "Cc1cc(C)cc(OCc2nnc(SCC(=O)OC3CCCCC3)o2)c1", "REPORTED_VALUE": 2.83}
{"COMPOUND": "O=C(Nc1ccccc1Cl)/C(Cl)=C(\\Cl)S(=O)c1ccccc1 (stereo unspecified)", "REPORTED_VALUE": -14.3}
{"COMPOUND": "CC1CCc2[nH]c3ccc(C(=O)N(C)CC(=O)Nc4cccc(F)c4)cc3c2C1 (stereo unspecified)", "REPORTED_VALUE": -0.84}
{"COMPOUND": "COc1ccccc1NS(=O)(=O)c1ccc(C(=O)N2CCN(c3ccccc3O)CC2)cc1", "REPORTED_VALUE": -0.57}
{"COMPOUND": "CCOC(=O)N1CCN(C(=O)COc2ccc3oc4c(c3c2)CCCC4)CC1", "REPORTED_VALUE": 0.58}
{"COMPOUND": "COc1ccc2c(c1)C(=O)Nc1cc(Cl)ccc1N2", "REPORTED_VALUE": 0.62}
{"COMPOUND": "O=C(Nc1ccc2nc3n(c(=O)c2c1)CCCC3)c1ccc(Cl)nc1", "REPORTED_VALUE": -0.4}
{"COMPOUND": "CC1CC(=O)Nc2ccccc2N1S(=O)(=O)c1cccs1 (stereo unspecified)", "REPORTED_VALUE": -0.1}
{"COMPOUND": "C=CS(=O)c1sc(Cl)c(N2CCOCC2)c1[N+](=O)[O-] (stereo unspecified)", "REPORTED_VALUE": -4.54}

* * *

Molecular target: Inward rectifier potassium channel 2 (Mus musculus) (UniProt P35561)
Assay: blocks the mouse Kir2.1 inward-rectifier potassium channel (AID 1672);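 note: channel flux triggered by added potassium and thallium sulfate stimulus; B-score of peak minus minimum fluorescence over baseline after thallium stimulus; more negative B-score means stronger Kir2.1 block with less thallium influx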
Details: HEK293-Kir2.1, FluxOR thallium flux fluorescence; at 10 µM; hits give low values
The campaign covered roughly 310,000 compounds. About 2,600 (0.84%) were called active. This excerpt belongs to a sample that is enriched for actives.
Response field label takes y when B-score is strictly below -0.09 and n in all other cases.

{"COMPOUND": "O=C(c1ccc(NS(=O)(=O)c2ccc3[nH]c(=O)[nH]c3c2)cc1)N1CCCCC1", "ASSAY_SYSTEM": "Inward rectifier potassium channel 2 (Mus musculus) (UniProt P35561)", "CAT": "y"}
{"COMPOUND": "CCC(C)N(C(=O)CSc1ncnc2c1cnn2-c1ccccc1)C1CCS(=O)(=O)C1 (stereo unspecified)", "ASSAY_SYSTEM": "Inward rectifier potassium channel 2 (Mus musculus) (UniProt P35561)", "CAT": "n"}
{"COMPOUND": "O=C(N/N=C/c1cc(Br)c(O)c([N+](=O)[O-])c1)C(O)(c1ccccc1)c1ccccc1", "ASSAY_SYSTEM": "Inward rectifier potassium channel 2 (Mus musculus) (UniProt P35561)", "CAT": "n"}
{"COMPOUND": "CC(C)(c1ccccc1)c1ccc(OCCN2CCCC2)cc1", "ASSAY_SYSTEM": "Inward rectifier potassium channel 2 (Mus musculus) (UniProt P35561)", "CAT": "y"}
{"COMPOUND": "CCN(CC(=O)NCc1cccs1)C(=O)c1ccc(OC)c(S(=O)(=O)N2CCOCC2)c1", "ASSAY_SYSTEM": "Inward rectifier potassium channel 2 (Mus musculus) (UniProt P35561)", "CAT": "y"}
{"COMPOUND": "CC(C)(C)N(CC#CCC(O)(c1ccccc1)C1CCCC1)CCO (stereo unspecified)", "ASSAY_SYSTEM": "Inward rectifier potassium channel 2 (Mus musculus) (UniProt P35561)", "CAT": "y"}
{"COMPOUND": "Cc1nn(CCOc2ccccc2)c(=O)n1-c1ccccc1F", "ASSAY_SYSTEM": "Inward rectifier potassium channel 2 (Mus musculus) (UniProt P35561)", "CAT": "y"}
{"COMPOUND": "CC(=O)c1ccc(S(=O)(=O)NC2CC(=O)N(c3ccc4c(c3)OCCO4)C2)cc1 (stereo unspecified)", "ASSAY_SYSTEM": "Inward rectifier potassium channel 2 (Mus musculus) (UniProt P35561)", "CAT": "n"}
{"COMPOUND": "CN(C(=O)c1cc2c(=O)n3ccccc3nc2s1)C1CCCCC1", "ASSAY_SYSTEM": "Inward rectifier potassium channel 2 (Mus musculus) (UniProt P35561)", "CAT": "y"}
{"COMPOUND": "O=C(CSc1nc(=O)n2ccccc2n1)Nc1ccc2c(c1)OCCO2", "ASSAY_SYSTEM": "Inward rectifier potassium channel 2 (Mus musculus) (UniProt P35561)", "CAT": "n"}

Data origin: PubChem BioAssay AID1672
